Just for reference, the FLAb antibody collection is where these values come from.

Test: patients with anti-drug antibodies; higher = more immunogenic
Param threshold (8%) applies to patients with anti-drug antibodies; output Satisfied when value >= threshold, Not satisfied when value < threshold.

Inquiry: Hello, I need to know if unnamed (protein) chain 1: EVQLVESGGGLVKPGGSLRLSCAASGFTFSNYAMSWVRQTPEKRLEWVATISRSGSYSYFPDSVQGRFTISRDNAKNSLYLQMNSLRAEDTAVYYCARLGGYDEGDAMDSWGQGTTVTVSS chain 2: DIVMTQTPLSLSVTPGQPASISCKSSQSLLESDGKTYLNWYLQKPGQSPQLLIYLVSILDSGVPDRFSGSGSGTDFTLKISRVEAEDVGVYYCLQATHFPQTFGGGTKVEIK has measured patients with anti-drug antibodies not below 8%. Thanks!
Reply text: Satisfied

Inquiry: # bool: patients with anti-drug antibodies of unnamed (protein) chain 1: EVQLVESGGGLVQPGGSLRLSCAASGYTFTNYGMNWVRQAPGKGLEWVGWINTYTGEPTYAADFKRRFTFSLDTSKSTAYLQMNSLRAEDTAVYYCAKYPHYYGSSHWYFDVWGQGTLVTVSS chain 2: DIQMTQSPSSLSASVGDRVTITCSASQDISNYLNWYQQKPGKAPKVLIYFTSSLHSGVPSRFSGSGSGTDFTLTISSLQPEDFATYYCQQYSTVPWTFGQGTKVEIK >= 8%
Reply text: Not satisfied

Inquiry: Could you verify whether the entry unnamed (protein) chain 1: EVKLVESGGGLVQPGGSLRLSCATSGFTFTDYYMNWVRQPPGKALEWLGFIGNKANGYTTEYSASVKGRFTISRDKSQSILYLQMNTLRAEDSATYYCTRDRGLRFYFDYWGQGTTLTVSS chain 2: QTVLSQSPAILSASPGEKVTMTCRASSSVTYIHWYQQKPGSSPKSWIYATSNLASGVPARFSGSGSGTSYSLTISRVEAEDAATYYCQHWSSKPPTFGGGTKLEIK shows patients with anti-drug antibodies of no less than 8%?
Reply text: Not satisfied

Inquiry: Say whether unnamed (protein) chain 1: QVQLQESGPGLVKPSETLSLTCTVSGFSLLSYGVHWVRQPPGKGLEWLGVIWTGGTTNYNSALMSRFTISKDDSKNTVYLKMNSLKTEDTAIYYCARYYYGMDYWGQGTLVTVSS chain 2: DIQMTQSPSSLSASVGDRVTITCKASQDVRNTVAWYQQKPGKAPKLLIYSSSYRNTGVPDRFSGSGSGTDFTLTISSLQAEDVAVYYCQQHYITPYTFGGGTKVEIK shows patients with anti-drug antibodies of 8% or more.
Reply text: Satisfied

Inquiry: Item unnamed (protein) chain 1: QVQLVQSGAEVKKPGSSVKVSCKASGYSFTDYHIHWVRQAPGQGLEWMGVINPMYGTTDYNQRFKGRVTITADESTSTAYMELSSLRSEDTAVYYCARYDYFTGTGVYWGQGTLVTVSS chain 2: DIVMTQTPLSLSVTPGQPASISCRSSRSLVHSRGNTYLHWYLQKPGQSPQLLIYKVSNRFIGVPDRFSGSGSGTDFTLKISRVEAEDVGVYYCSQSTHLPFTFGQGTKLEIK with patients with anti-drug antibodies of 8% or above?
Reply text: Satisfied
